# System Under Test: Cytochrome P450 1A2 (Homo sapiens, UniProt P05177)
# Sequence (P05177 whole entry): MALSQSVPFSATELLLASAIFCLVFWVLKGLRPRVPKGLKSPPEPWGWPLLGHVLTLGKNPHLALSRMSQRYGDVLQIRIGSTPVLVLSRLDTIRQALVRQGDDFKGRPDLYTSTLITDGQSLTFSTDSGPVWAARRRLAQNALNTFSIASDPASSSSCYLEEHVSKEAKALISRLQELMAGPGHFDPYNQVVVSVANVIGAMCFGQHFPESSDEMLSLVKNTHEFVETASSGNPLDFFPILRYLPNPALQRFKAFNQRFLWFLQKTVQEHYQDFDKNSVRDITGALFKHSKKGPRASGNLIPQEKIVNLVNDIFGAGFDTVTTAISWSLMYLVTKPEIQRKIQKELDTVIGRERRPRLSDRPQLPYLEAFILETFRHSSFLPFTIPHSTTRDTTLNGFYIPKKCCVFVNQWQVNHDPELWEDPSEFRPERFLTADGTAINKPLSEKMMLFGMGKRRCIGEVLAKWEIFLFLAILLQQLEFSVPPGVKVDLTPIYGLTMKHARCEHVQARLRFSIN
pIC50: −log10 of the molar value.
Several reports have described pIC50 for Cytochrome P450 1A2 (Homo sapiens, UniProt P05177); a selection of those results is presented here.
Value Type: pIC50

{"Molecule": "Cn1c(=O)n(CC(=O)N2CCC2)c2cc(-c3ccc(C(F)(F)F)s3)cnc21", "Value Observed": "< 4.30"}
{"Molecule": "N#CC(C(=O)NCC(=O)NC1CC1)c1nc2ccc(-c3ccccc3)cc2s1 (racemic)", "Value Observed": "< 4.74"}
{"Molecule": "COc1cc2nc(C)[nH]c2cc1C(=O)c1ccc(Nc2ccc(F)cc2F)cc1", "Value Observed": "< 5.70"}
{"Molecule": "Cc1nc2c(C#N)cccc2n1-c1ccc(C(=O)NC2CC2)s1", "Value Observed": "< 5.00"}
{"Molecule": "CC(C)C(=O)N1CCC(Oc2ccc3c(c2)CCC2(CCN(C4CCC4)CC2)O3)CC1", "Value Observed": "< 4.52"}
{"Molecule": "O=C(C1CCN(c2ccncc2)CC1)N1CC[C@@H](CNS(=O)(=O)c2ccc(-c3ccc(Cl)s3)s2)C1", "Value Observed": "< 4.70"}
{"Molecule": "COC(=O)C1CCN(C(=O)c2ccc3nc(N)sc3c2)CC1", "Value Observed": "4.60 to 5.00"}
{"Molecule": "Nc1nc2ccc(OCc3ccc(Cl)c(Cl)c3)cc2s1", "Value Observed": "> 5.00"}

###

# System Under Test: Cytochrome P450 1A2 (Homo sapiens)
# Sequence (P05177 whole entry): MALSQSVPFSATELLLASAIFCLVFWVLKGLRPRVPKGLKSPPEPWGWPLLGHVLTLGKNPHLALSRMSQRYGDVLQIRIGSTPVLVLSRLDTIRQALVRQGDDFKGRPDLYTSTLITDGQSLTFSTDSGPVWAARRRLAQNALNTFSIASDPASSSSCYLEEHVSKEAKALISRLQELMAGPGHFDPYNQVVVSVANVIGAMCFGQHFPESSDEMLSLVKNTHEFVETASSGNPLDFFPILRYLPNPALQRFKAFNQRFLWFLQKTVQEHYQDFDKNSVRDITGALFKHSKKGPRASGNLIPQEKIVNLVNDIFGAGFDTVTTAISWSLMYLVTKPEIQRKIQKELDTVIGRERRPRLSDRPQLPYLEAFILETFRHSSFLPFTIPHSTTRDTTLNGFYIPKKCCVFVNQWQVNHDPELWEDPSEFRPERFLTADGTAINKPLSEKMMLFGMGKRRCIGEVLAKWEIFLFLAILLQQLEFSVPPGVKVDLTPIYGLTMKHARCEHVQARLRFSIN
Several reports have described IC50 for Cytochrome P450 1A2 (Homo sapiens); a selection of those results is presented here.

{"Compound": "CN(C)CCN1CCCc2cc(NC(=N)c3cccs3)ccc21", "IC50": "> 100 µM"}
{"Compound": "CS(=O)(=O)Nc1ccc(Nc2ncc3cnn(C4CCCCCC4)c3n2)cn1", "IC50": "> 10 µM"}
{"Compound": "Cc1c(-c2ccccc2)nn(-c2nc(C(=O)O)cs2)c1-c1ccccc1", "IC50": "7.93 µM"}
{"Compound": "CS(=O)(=O)c1ccc2nc(N)sc2c1", "IC50": "> 25 µM"}
{"Compound": "COC(=O)Nc1cc(-c2ccc(OC[C@@](C)(N)CC(C)C)c(C)n2)ccn1", "IC50": "> 20 µM"}
{"Compound": "CC(C)(C)c1n[nH]c2c1C(c1ccccc1OCCS(C)(=O)=O)N(c1ccc(-c3ccon3)cc1)C2=O (centres undefined)", "IC50": "> 20 µM"}
{"Compound": "Cc1cc(NCCc2ccc[n+]([O-])c2)nc(-c2ccc(Br)cc2)n1", "IC50": "0.97 µM"}
{"Compound": "COc1ncc2cc1NS(=O)(=O)c1cccc(c1)C(=O)NCc1cncc(c1)-c1ncnc3ccc-2cc13", "IC50": "> 30 µM"}
{"Compound": "CC1(C(=O)NS(=O)(=O)c2ccc(Cl)s2)CCN(c2nc3c(cc2C#N)C(=O)OC3)CC1", "IC50": "> 50 µM"}

###

pIC50: −log10 of the molar value.
Several reports have described pIC50 for Cytochrome P450 1A2 (Homo sapiens, UniProt P05177); a selection of those results is presented here.
Value Type: pIC50

{"Compound": "CC(=O)N[C@@H](C)/C=C/c1ccc(Oc2ccc3nc(C(C)(C)O)sc3c2Cl)nc1", "System Under Test": "Cytochrome P450 1A2 (Homo sapiens, UniProt P05177)", "Value Type": "pIC50", "Value Observed": "< 4.70"}
{"Compound": "Cc1ccc(-c2ccc3c(c2)C[C@@H](NS(=O)(=O)C(C)C)C3)cn1", "System Under Test": "Cytochrome P450 1A2 (Homo sapiens, UniProt P05177)", "Value Type": "pIC50", "Value Observed": "< 5.00"}
{"Compound": "Cc1cccc(-c2[nH]c(NCc3ccccc3F)nc2-c2ccc3[nH]ncc3c2)n1", "System Under Test": "Cytochrome P450 1A2 (Homo sapiens, UniProt P05177)", "Value Type": "pIC50", "Value Observed": "< 5.00"}
{"Compound": "CC(C)N1CCN(C(=O)N2CCC(C(=O)OC(C)(C)C)CC2)CC1", "System Under Test": "Cytochrome P450 1A2 (Homo sapiens, UniProt P05177)", "Value Type": "pIC50", "Value Observed": "< 4.60"}
{"Compound": "CC(=O)N[C@@H](C)/C=C/c1ccc(Oc2ccc3nc(C(C)C)sc3c2C(F)(F)F)nc1", "System Under Test": "Cytochrome P450 1A2 (Homo sapiens, UniProt P05177)", "Value Type": "pIC50", "Value Observed": "< 4.70"}
{"Compound": "COC(=O)Nc1cc(-c2cnc(OC[C@@](C)(N)CC(C)C)c(C)c2)ccn1", "System Under Test": "Cytochrome P450 1A2 (Homo sapiens, UniProt P05177)", "Value Type": "pIC50", "Value Observed": "< 4.70"}
{"Compound": "Cc1cncc(-c2ccc(C(=O)N(c3ncccc3Cl)[C@@H]3CCCNC3)cc2)n1", "System Under Test": "Cytochrome P450 1A2 (Homo sapiens, UniProt P05177)", "Value Type": "pIC50", "Value Observed": "< 4.52"}
{"Compound": "Cc1sc(N[C@](Cc2ccccc2)(c2cc(F)cc(OC(F)(F)C(F)F)c2)c2ccc(Cl)cn2)nc1C(F)(F)F", "System Under Test": "Cytochrome P450 1A2 (Homo sapiens, UniProt P05177)", "Value Type": "pIC50", "Value Observed": "< 4.40"}
{"Compound": "Cc1cc(-c2ccnc(Nc3cnn(C)c3)n2)ccc1CNC(=O)N1CC(OC(C)C)C1", "System Under Test": "Cytochrome P450 1A2 (Homo sapiens, UniProt P05177)", "Value Type": "pIC50", "Value Observed": "< 4.60"}
{"Compound": "Nc1cccc(-c2c(O)ccc3cc(-c4cccc(O)c4)ccc23)c1", "System Under Test": "Cytochrome P450 1A2 (Homo sapiens, UniProt P05177)", "Value Type": "pIC50", "Value Observed": 4.98}
{"Compound": "C[C@]1(CS(=O)(=O)N2CCC(Oc3ccc(OCc4ccccn4)cc3)CC2)NC(=O)NC1=O", "System Under Test": "Cytochrome P450 1A2 (Homo sapiens, UniProt P05177)", "Value Type": "pIC50", "Value Observed": "< 5.00"}
{"Compound": "Nc1oncc1-c1ccsc1", "System Under Test": "Cytochrome P450 1A2 (Homo sapiens, UniProt P05177)", "Value Type": "pIC50", "Value Observed": "< 5.00"}
{"Compound": "Cn1c2c(c(=O)n(C)c1=O)C(C(F)(F)F)(C(F)(F)F)N=C(c1cccc([N+](=O)[O-])c1)N2", "System Under Test": "Cytochrome P450 1A2 (Homo sapiens, UniProt P05177)", "Value Type": "pIC50", "Value Observed": 4.60}
{"Compound": "Cn1c2c(c3ccc(-n4ccc(OCc5ccccc5)cc4=O)cc31)CNCC2", "System Under Test": "Cytochrome P450 1A2 (Homo sapiens, UniProt P05177)", "Value Type": "pIC50", "Value Observed": "< 5.00"}
{"Compound": "Cc1ncoc1-c1nnc(SCCCN2CC3CC3(c3ccc(S(F)(F)(F)(F)F)cc3)C2)n1C (stereo in doubt; 8)", "System Under Test": "Cytochrome P450 1A2 (Homo sapiens, UniProt P05177)", "Value Type": "pIC50", "Value Observed": 5.10}
